The following compounds are listed with their measured pIC50 values.
- tested.system: human DGKα (Homo sapiens)
- Construct: TVMV protease cleavage site (C); Hexa-His (C); made in house; host or cells: Sf9 insect cells (baculovirus, Bac-to-Bac)
- run.description: DGKα LIPGLO assay (extruded liposome substrate), in vitro DGK inhibition
- Assay type: biochemical
- condition.summary: liposome (LIPGLO) assay; read-out: DGKa LIPGLO IC50
pIC50 is a log-scale quantity: -log10 of the concentration expressed in molar.

Some compounds with recorded pIC50:
[[record]]
compound = "CC[C@H]1CN(c2cc(=O)n(C)c3ccc(C#N)nc23)CCN1C(c1ccc(F)cc1)c1ccc(F)cc1 [Example 128]"
test_result = 4.33

[[record]]
compound = "CC(c1csc(C(F)(F)F)n1)N1C[C@H](C)N(c2cc(=O)n(C)c3ccc(C#N)nc23)C[C@H]1C (single isomer, unassigned) [Example 1274]"
test_result = 6.23


Query :: Missing value: pIC50, human DGKα (Homo sapiens), entry CC[C@@H]1CN(c2cc(=O)n(C)c3ccc(C#N)nc23)[C@@H](C)CN1C(C)c1ccc(OC)cc1 (single isomer, unassigned) [Example 482] . Fill in?
Result :: 6.89

Query :: What do you have for C[C@@H]1CN(c2cc(=O)n(C)c3ccc(C#N)nc23)[C@@H](C)CN1C(c1ccc(F)cc1)c1ccc(C(F)(F)F)cn1 (single isomer, unassigned) [Example 680] ?
Result :: 5.92

Query :: What do you have for C[C@@H]1CN(c2cc(=O)n(C)c3ccc(C#N)nc23)[C@@H](C)CN1C(c1ccc(Cl)cc1)c1ncccc1F (single isomer, unassigned) [Example 189] ?
Result :: 6.70

---

- tested.system: human DGKα (Homo sapiens, UniProt P23743)
- Construct: TVMV protease cleavage site (C); Hexa-His (C); made in house; host or cells: Sf9 insect cells (baculovirus, Bac-to-Bac)
- Sequence (P23743 with tags, fused parts or gaps): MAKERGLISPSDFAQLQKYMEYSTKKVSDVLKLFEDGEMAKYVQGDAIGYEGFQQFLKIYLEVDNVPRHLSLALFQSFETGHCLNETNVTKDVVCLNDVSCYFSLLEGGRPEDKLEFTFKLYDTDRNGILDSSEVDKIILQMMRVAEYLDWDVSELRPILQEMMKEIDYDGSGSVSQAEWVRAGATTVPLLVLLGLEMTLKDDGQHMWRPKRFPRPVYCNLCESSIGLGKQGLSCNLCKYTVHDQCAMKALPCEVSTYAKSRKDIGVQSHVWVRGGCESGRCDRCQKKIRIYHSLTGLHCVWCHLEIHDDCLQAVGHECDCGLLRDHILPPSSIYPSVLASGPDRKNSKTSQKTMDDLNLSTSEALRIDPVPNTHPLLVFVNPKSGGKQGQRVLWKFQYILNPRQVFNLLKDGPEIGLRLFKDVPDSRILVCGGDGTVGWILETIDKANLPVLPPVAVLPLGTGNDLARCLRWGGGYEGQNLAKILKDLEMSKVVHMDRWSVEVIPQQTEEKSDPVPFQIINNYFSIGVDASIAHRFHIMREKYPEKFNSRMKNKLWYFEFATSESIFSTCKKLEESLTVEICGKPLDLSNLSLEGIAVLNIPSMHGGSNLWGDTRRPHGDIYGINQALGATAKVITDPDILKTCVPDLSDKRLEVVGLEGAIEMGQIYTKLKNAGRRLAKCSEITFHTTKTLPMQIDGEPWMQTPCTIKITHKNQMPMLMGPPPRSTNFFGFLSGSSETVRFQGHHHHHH
- run.description: DGKα LIPGLO assay (extruded liposome substrate), in vitro DGK inhibition
- Format: biochemical
- condition.summary: DGKα liposome (LIPGLO) assay; read-out: DGKa LIPGLO IC50
pIC50: −log10 of the molar value.
Assign class by pIC50: not lower than 5 means criterion met; lower than 5 means criterion not met.

Some entries whose results are on file:
[[record]]
compound = "C[C@@H]1CN(c2c(C#N)c(=O)n(C)c3ccc(C#N)nc23)CCN1C(c1ccccc1)c1ccc(F)cc1 (single isomer, unassigned) [Example 878]"
category_label = "criterion met"

[[record]]
compound = "CC(C)c1nnc(C(c2ccc(F)cc2)N2C[C@H](C)N(c3cc(=O)n(C)c4ccc(C#N)nc34)C[C@H]2C)s1 (single isomer, unassigned) [Example 772]"
category_label = "criterion met"

[[record]]
compound = "C[C@@H]1CN(c2cc(=O)n(C)c3ccc(C#N)nc23)[C@@H](C)CN1C(c1ccc(F)cc1)c1nc(-c2ccc(F)cc2)no1 (single isomer, unassigned) [Example 741]"
category_label = "criterion met"

[[record]]
compound = "CC(c1ccc(Br)cc1)N1CCN(c2c(C#N)c(=O)n(C)c3ccc(C#N)nc23)C[C@H]1C (single isomer, unassigned) [Example 975]"
category_label = "criterion met"

[[record]]
compound = "C[C@@H]1CN(c2c(C#N)c(=O)n(C)c3ccc(C#N)nc23)CCN1Cc1ccccc1C#N [Example 1009]"
category_label = "criterion met"

[[record]]
compound = "COC(=O)c1cccc(C(C)N2C[C@H](C)N(c3c(C#N)c(=O)n(C)c4ccc(C#N)nc34)C[C@H]2C)c1 (single isomer, unassigned) [Example 796]"
category_label = "criterion not met"


Turning to the following compound.
Query :: Form field: pIC50 at least 5? Entry: C[C@@H]1CN(c2c(C#N)c(=O)n(C)c3ccc(C#N)nc23)[C@@H](C)CN1C(c1ccc(F)cc1)c1ccns1 (single isomer, unassigned) [Example 854]
Result :: criterion met
